Assay: Cytotoxicity against human WI-38 cells incubated for 48 hrs by MTT assay
Type: toxicity, cell-based
endpoint label: IC50 at 48 h (µM)

[[record]]
compound = "CC1(C)C2CCC1(C)[C@H](OC1OC(=O)C(Cl)=C1N1CCN(C(=O)c3cc(O)c4c(c3)C(=O)c3cccc(O)c3C4=O)CC1)C2 (stereo not given in full)"
observed_value = 173

[[record]]
compound = "COC1OC(=O)C(Cl)=C1N1CCN(C(=O)c2cc(OC(C)=O)c3c(c2)C(=O)c2cccc(OC(C)=O)c2C3=O)CC1 (stereo not given)"
observed_value = 69.3

[[record]]
compound = "CC(=O)Oc1cccc2c1C(=O)c1c(OC(C)=O)cc(C(=O)N3CCN(C4=C(Br)C(=O)OC4O[C@@H]4CC5CCC4(C)C5(C)C)CC3)cc1C2=O (stereo not given in full)"
observed_value = 43.1

[[record]]
compound = "CC1(C)C2CCC1(C)[C@H](OC1OC(=O)C(Br)=C1N1CCN(C(=O)c3cc(O)c4c(c3)C(=O)c3cccc(O)c3C4=O)CC1)C2 (stereo not given in full)"
observed_value = 152

[[record]]
compound = "CC(=O)Oc1cccc2c1C(=O)c1c(OC(C)=O)cc(C(=O)N3CCN(C4=C(Cl)C(=O)O[C@@H]4O[C@@H]4C[C@H](C)CC[C@H]4C(C)C)CC3)cc1C2=O"
observed_value = 66.3

